Recorded values, source patent US20230374038A1.

study-target: CFTR (Homo sapiens)
experimental-protocol: Membrane Potential Dye, Enteroid Assay B
Assay type: cell-based
condition-info: read-out: Ent. B EC50
// values below are reported EC50

COc1c2nc(nc1-c1c(C)cccc1C)NS(=O)(=O)c1cccc(c1)C(=O)N[C@H](CC(C)C)CO2 [Compound 180]
< 1000 nM
COc1ccccc1-c1c2nc(nc1-c1c(C)cccc1C)NS(=O)(=O)c1cccc(c1)C(=O)NC[C@@H](C)O2 [Compound 153]
< 1000 nM
Cc1cccc(C)c1-c1nc2nc(c1-c1cnn(CC(C)C)c1)OC[C@@H](C)NC(=O)c1cccc(c1)S(=O)(=O)N2 [Compound 124]
3000 to 30000 nM
Cc1cccc(C)c1-c1nc2nc(c1C)OC[C@@H](CC(C)C)N(C1CC3(CCN(C(=O)OC(C)C)CC3)C1)C(=O)c1cccc(c1)S(=O)(=O)N2 [Compound 70]
< 1000 nM
Cc1cccc(C)c1-c1nc2nc(c1C1=CCN(C(=O)OC(C)(C)C)CC1)O[C@H](C)CNC(=O)c1cccc(c1)S(=O)(=O)N2 [Compound 149]
< 1000 nM

Task: Read the entry Cc1cccc(C)c1-c1nc2nc(c1C)OC[C@@H](CC1(C(F)(F)F)CC1)N(C1CC3(CCN(C(=O)OC(C)C)CC3)C1)C(=O)c1cccc(c1)S(=O)(=O)N2 [Compound 76] and write its reported EC50.
Result: < 1000 nM

---

study-target: CFTR (Homo sapiens, UniProt P13569)
Sequence (P13569 with tags, fused parts or gaps DEL508-508): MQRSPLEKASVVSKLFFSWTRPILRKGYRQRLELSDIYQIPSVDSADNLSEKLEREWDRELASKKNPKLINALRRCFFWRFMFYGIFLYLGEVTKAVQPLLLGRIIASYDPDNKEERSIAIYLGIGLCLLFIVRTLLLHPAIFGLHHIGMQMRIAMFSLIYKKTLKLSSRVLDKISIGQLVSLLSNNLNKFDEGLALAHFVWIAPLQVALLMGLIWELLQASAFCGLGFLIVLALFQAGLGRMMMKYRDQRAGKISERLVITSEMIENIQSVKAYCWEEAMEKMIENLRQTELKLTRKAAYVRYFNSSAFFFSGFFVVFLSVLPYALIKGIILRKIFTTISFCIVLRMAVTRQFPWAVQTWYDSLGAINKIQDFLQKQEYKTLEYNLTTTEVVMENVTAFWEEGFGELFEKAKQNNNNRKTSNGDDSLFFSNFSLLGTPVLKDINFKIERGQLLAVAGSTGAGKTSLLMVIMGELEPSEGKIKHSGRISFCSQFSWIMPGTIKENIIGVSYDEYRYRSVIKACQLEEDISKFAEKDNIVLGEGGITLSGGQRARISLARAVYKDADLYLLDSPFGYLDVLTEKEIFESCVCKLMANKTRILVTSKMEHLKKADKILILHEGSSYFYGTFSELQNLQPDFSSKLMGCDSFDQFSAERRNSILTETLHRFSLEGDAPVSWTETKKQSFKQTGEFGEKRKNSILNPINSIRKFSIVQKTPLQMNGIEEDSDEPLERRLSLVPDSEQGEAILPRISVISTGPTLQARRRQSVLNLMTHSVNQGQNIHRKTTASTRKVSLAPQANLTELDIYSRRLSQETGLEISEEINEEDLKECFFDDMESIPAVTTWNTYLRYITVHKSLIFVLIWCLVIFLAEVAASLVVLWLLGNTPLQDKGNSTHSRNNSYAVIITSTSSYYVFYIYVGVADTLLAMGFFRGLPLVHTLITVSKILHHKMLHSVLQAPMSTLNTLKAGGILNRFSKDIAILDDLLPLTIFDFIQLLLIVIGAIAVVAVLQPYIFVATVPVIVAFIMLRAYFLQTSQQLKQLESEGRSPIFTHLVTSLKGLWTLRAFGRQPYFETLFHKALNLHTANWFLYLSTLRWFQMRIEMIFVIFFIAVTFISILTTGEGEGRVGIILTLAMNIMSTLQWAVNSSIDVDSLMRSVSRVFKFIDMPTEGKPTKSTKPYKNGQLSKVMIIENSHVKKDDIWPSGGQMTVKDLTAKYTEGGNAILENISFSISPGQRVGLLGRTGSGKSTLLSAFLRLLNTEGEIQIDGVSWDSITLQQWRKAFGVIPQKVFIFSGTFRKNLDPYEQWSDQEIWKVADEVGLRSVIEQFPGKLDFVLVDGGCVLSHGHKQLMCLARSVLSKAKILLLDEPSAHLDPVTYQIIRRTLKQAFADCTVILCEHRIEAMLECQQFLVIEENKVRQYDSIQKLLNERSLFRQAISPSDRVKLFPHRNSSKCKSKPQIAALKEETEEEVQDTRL
experimental-protocol: Membrane Potential Dye, Enteroid Assay B
Assay type: cell-based
Procedure: Base medium (ADF+++) consisted of Advanced DMEM/Ham's F12, 2 mM Glutamax, 10 mM HEPES, 1 µg/mL penicillin/streptomycin. […] Enteroid cells were incubated with test compound in IEMM for 18-24 hours at 37° C., 95% humidity and 5% CO2. […] Chloride transport was initiated by addition of Chloride Free Dye Stimulation Solution and the fluorescence signal was read for 15 min. […]
measured-property: Ent. B Max Activity

CCc1c2nc(nc1-c1c(C)cccc1C)NS(=O)(=O)c1cccc(c1)C(=O)N(C1CC3(CCN(C(=O)OC(C)(C)C)CC3)C1)[C@H](CC(C)C)CO2
+++ (+++ is >60%)
Cc1cccc(C)c1-c1nc2nc(c1C)OC[C@@H](CC(C)(C)C)N(C1CC3(CC(CO)C3)C1)C(=O)c1cccc(c1)S(=O)(=O)N2 (stereo in doubt) [Compound 78]
+++ (+++ is >60%)
Cc1cccc(C)c1-c1nc2nc(c1C)OC[C@@H](CC(C)(C)C)N(C1CC3(CC(N(C)C)C3)C1)C(=O)c1cccc(c1)S(=O)(=O)N2 (stereo partly drawn) [Compound 94]
+++ (+++ is >60%)

---

study-target: CFTR (Homo sapiens, UniProt P13569)
experimental-protocol: Membrane Potential Dye, Enteroid Assay B
Assay type: cell-based
measured-property: Ent. B Max Activity

Completed entries (count: 8):
Cc1cccc(C)c1-c1nc2nc(c1C)OC[C@@H](CCC(C)(C)O)N(Cc1ccc(C(C)(C)O)cc1)C(=O)c1cccc(c1)S(=O)(=O)N2
++ (++ is 30-60%)
COC1CC(N2C(=O)c3cccc(c3)S(=O)(=O)Nc3nc(c(C)c(-c4c(C)cccc4C)n3)OC[C@H]2CC2(C(F)(F)F)CC2)C1 (stereo partly drawn) [Compound 99]
+++ (+++ is >60%)
Cc1cccc(C)c1-c1nc2nc(c1C)OC[C@@H](CCC(C)(C)O)N(Cc1ncccn1)C(=O)c1cccc(c1)S(=O)(=O)N2
++ (++ is 30-60%)
Cc1cccc(C)c1-c1nc2nc(c1C)OC[C@@H](CC(C)(C)O)N(CCCC(C)(C)O)C(=O)c1cccc(c1)S(=O)(=O)N2
+ (+ is <30%)
Cc1cccc(C)c1-c1nc2nc(c1C1CCN(C(=O)OC(C)(C)C)CC1)OC[C@@H](C)NC(=O)c1cccc(c1)S(=O)(=O)N2
+ (+ is <30%)
Cc1cccc(C)c1-c1nc2nc(c1-c1ccncc1)O[C@H](C)CNC(=O)c1cccc(c1)S(=O)(=O)N2
+ (+ is <30%)
Cc1cccc(C)c1-c1nc2nc(c1C)OC[C@@H](CC(C)(C)C)N(C1CC3(CC(N)C3)C1)C(=O)c1cccc(c1)S(=O)(=O)N2 (single isomer, unassigned) [Compound 63]
+++ (+++ is >60%)
Cc1cccc(C)c1-c1nc2nc(c1C)OC(c1ccc(CC3(C(F)(F)F)CC3)cn1)CN(C)C(=O)c1cccc(c1)S(=O)(=O)N2 (stereo not drawn) [Compound 203]
+++ (+++ is >60%)

Turning to the following molecule.
Task: Report Ent. B Max Activity from CFTR (Homo sapiens, UniProt P13569) testing of Cc1cccc(C)c1-c1nc2nc(c1-c1ccccc1)O[C@H](C)CNC(=O)c1cccc(c1)S(=O)(=O)N2
Result: +++ (+++ is >60%)
